Data credit: patent US20140057895A1

Emax listing for selected molecules.
Molecular target: human 5-HT4b receptor (Homo sapiens, UniProt Q13639)
Construct: expressed in transfected cells; host or cells: CHO cells (G418 selection)
Sequence (Q13639 whole entry): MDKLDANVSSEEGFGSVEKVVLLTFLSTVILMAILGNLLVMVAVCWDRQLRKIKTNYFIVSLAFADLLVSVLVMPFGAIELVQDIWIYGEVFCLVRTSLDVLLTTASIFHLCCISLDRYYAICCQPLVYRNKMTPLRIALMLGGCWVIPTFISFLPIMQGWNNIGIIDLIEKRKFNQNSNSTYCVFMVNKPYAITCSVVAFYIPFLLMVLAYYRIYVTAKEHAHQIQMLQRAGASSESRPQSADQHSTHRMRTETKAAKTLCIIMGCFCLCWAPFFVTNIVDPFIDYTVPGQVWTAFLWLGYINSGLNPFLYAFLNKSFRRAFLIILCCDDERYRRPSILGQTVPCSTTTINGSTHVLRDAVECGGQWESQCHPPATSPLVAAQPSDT
Assay: Test Example 2: Serotonin 4 (5-HT4) receptor agonist activity assay, cAMP HTRF in CHO cells (Table 97)
Format: cell-based
Settings: 0.25 h; intrinsic activity, maximal activity of 5-HT defined as 100%; cAMP in CHO cells expressing human 5-HT4b receptor; mean value; read-out: IA (%)
Counter-ions that a name gives are not always drawn.
recorded_metric: Emax (%)

> print(dat)
                                    molecule  recorded.metric  result.number
 1  CCc1nn(-c2noc(C3CCN(CCCOC)CC3)n2)c2cc(F)ccc12 [Example 92]             Emax             92
 2  CC(=O)N1CCC(N2CCC(c3nc(-n4nc(C(C)C)c5cccc(F)c54)no3)CC2)CC1.Cl [Example 232, hydrochloride]             Emax             95
 3  CCc1nn(-c2noc(C3CCN(C[C@@H]4CCN(C(=O)OCCF)C4)CC3)n2)c2ccccc12 [Example 195]             Emax             49
 4  CCc1nn(-c2noc(C3CCN(C4CCN(C(=O)OC)CC4)CC3)n2)c2cc(F)ccc12 [Example 230]             Emax             65
 5  CCc1nn(-c2noc(C3CCN(CCC4CCCO4)CC3)n2)c2cc(F)ccc12 (centres unmarked) [Example 131]             Emax             77
 6  CCC(C)N1CCC(c2nc(-n3nc(C4CCC4)c4ccccc43)no2)CC1 (centres unmarked) [Example 114, trifluoroacetate]             Emax             68
 7  CCc1nn(-c2noc(C3CCN(CCCOC)CC3)n2)c2c(F)cccc12 [Example 95]             Emax             43
 8  CCc1nn(-c2noc(C3CCN(C[C@@H]4CCCN4C(=O)OCCF)CC3)n2)c2c(F)cccc12 [Example 182]             Emax             38
 9  CCc1nn(-c2noc(C3CCN(C(C)CC)CC3)n2)c2ccccc12 (centres unmarked) [Example 101, trifluoroacetate]             Emax             70
10  COCCCN1CCC(c2nc(-n3nc(C(C)C)c4ccccc43)no2)CC1 [Example 85]             Emax            125
11  CCc1nn(-c2noc(C3CN(C4CCN(C(=O)OC)CC4)C3)n2)c2ccccc12 [Example 257]             Emax             48
12  CCCN1CCC(c2nc(-n3nc(C(C)C)c4ccccc43)no2)CC1 [Example 117, trifluoroacetate]             Emax             83
13  CCc1nn(-c2noc(C3CCN(CC4CCOCC4)CC3)n2)c2cc(F)ccc12 [Example 134]             Emax             81
14  CCc1nn(-c2noc(C3CCN(C[C@@H]4CCCN4C(=O)OC)CC3)n2)c2ccccc12 [Example 178]             Emax             38
